TEST: ATG_MRE_CIS: Attagene CIS-FACTORIAL HepG2 Assay for human Metal Responsive Element (MRE) (AID 2282954)
CONDITION_DESCRIPTION: HepG2 MRE cis-reporter transcription, Attagene multiplex; actives raise or lower the signal
The source made the active and inactive calls. Rule for the calls: active = hit-call score of the fitted dose curve at least 0.9, where 1 is the maximum; inactive = score below 0.9.

COMPOUND | AC50
C=CC1(C)OC(=O)N(c2cc(Cl)cc(Cl)c2)C1=O (configuration not stated) | inactive
CCNc1nc(Cl)nc(NC(C)C)n1 | inactive
O=C(O)COc1nc(Cl)c(Cl)cc1Cl | inactive
CO/C=C(/C(=O)OC)c1ccccc1Oc1cc(Oc2ccccc2C#N)ncn1 | 50 µM (active) [middle of 6 runs]
C=CCC1=C(C)C(OC(=O)C2C(C=C(C)C)C2(C)C)CC1=O (configuration not stated) | 43.8 µM (active) [middle of 6 runs]
CON(C)C(=O)Nc1ccc(Cl)c(Cl)c1 | inactive
CCOC(=O)C(Cl)Cc1cc(-n2nc(C)n(C(F)F)c2=O)c(F)cc1Cl (configuration not stated) | inactive
CCON=C(CC)C1=C(O)CC(c2c(C)cc(C)cc2C)CC1=O (configuration not stated) | inactive
COC(=O)N(OC)c1ccccc1COc1ccn(-c2ccc(Cl)cc2)n1 | 2.65 µM (active)
O=C(O)c1nc(Cl)ccc1Cl | inactive
CCCCC(CC)COC(=O)c1ccccc1C(=O)OCC(CC)CCCC (configuration not stated) | inactive
COP(=S)(OC)Oc1nc(Cl)c(Cl)cc1Cl | inactive
CCCN(CCC)c1c([N+](=O)[O-])cc(S(N)(=O)=O)cc1[N+](=O)[O-] | inactive
COc1cnc(OC)n2nc(NS(=O)(=O)c3c(OCC(F)F)cccc3C(F)(F)F)nc12 | inactive
COC(=O)C(C)Oc1ccc(Oc2ccc(Cl)cc2Cl)cc1 (configuration not stated) | inactive
CCOc1cc(Oc2ccc(C(F)(F)F)cc2Cl)ccc1[N+](=O)[O-] | 22 µM (active)
Cc1c(F)c(F)c(COC(=O)C2C(/C=C(\Cl)C(F)(F)F)C2(C)C)c(F)c1F (configuration not stated) | inactive
